System: Streptococci
Assay: Minimum inhibitory concentration, microdilution broth method, streptococci
Assay type: cell-based
Settings: S. pneumo GC 1894; Mueller-Hinton broth with 5% horse blood, 18-22 hours at 35° C.
MEASURE NAME: MIC

> print(dat)
                                    compound  measured.target  measure.name  value.reported
 1  CC(C)(C)c1ccc(-c2ccc(C3=C(O)/C(=C/c4cc(C(F)(F)F)ccc4F)OC3=O)cc2)cc1 [Example 120]     Streptococci           MIC       0.5 µg/mL
 2  COc1ccc(C2=C(O)/C(=C/c3ccc(-c4ccccc4)cc3)OC2=O)cc1 [Example 9]     Streptococci           MIC   < 0.125 µg/mL
 3  O=C1O/C(=C\c2cccc(C(F)(F)F)c2)C(O)=C1c1ccc2ccccc2c1 [Example 42]     Streptococci           MIC         8 µg/mL
 4  COc1cc(/C=C2\OC(=O)C(c3cccc(Cl)c3)=C2O)ccc1-c1ccccc1C [Example 22]     Streptococci           MIC         1 µg/mL
 5  O=C1O/C(=C\c2ccc(Cl)cc2)C(O)=C1c1cccc2ccccc12 [Example 46]     Streptococci           MIC        16 µg/mL
 6  CCOc1ccc(-c2ccc(C3=C(O)/C(=C/c4cc(C(F)(F)F)ccc4F)OC3=O)cc2)cc1 [Example 122]     Streptococci           MIC         1 µg/mL
 7  O=C1O/C(=C\c2ccc(-c3ccc(Cl)cc3)cc2)C(O)=C1c1ccc(Cl)cc1 [R=H, R1=4-Cl—C6H4, R2=4-(4′-Cl-biphenyl)]     Streptococci           MIC   < 0.125 µg/mL
 8  O=C1O/C(=C\c2cccc(C(F)(F)F)c2)C(O)=C1c1cccc(-c2ccccc2)c1 [Example 108]     Streptococci           MIC         1 µg/mL
 9  Cc1ccc(/C=C2\OC(=O)C(c3cccc(C(F)(F)F)c3)=C2O)s1 [Example 12]     Streptococci           MIC         2 µg/mL
10  CCOc1ccc(-c2ccc(C3=C(O)/C(=C/c4cccc(C(F)(F)F)c4Cl)OC3=O)cc2)cc1 [Example 117]     Streptococci           MIC       0.5 µg/mL
11  CC(C)(C)c1ccc(-c2ccc(C3=C(O)/C(=C/c4cc(C(F)(F)F)ccc4Cl)OC3=O)cc2)cc1 [Example 128]     Streptococci           MIC      0.25 µg/mL
12  O=C1O/C(=C\c2ccc(-c3ccccc3)cc2)C(O)=C1c1cccc(Cl)c1 [Example 69]     Streptococci           MIC      0.25 µg/mL
13  COc1cccc(C2=C(O)/C(=C/c3cccc4ccccc34)OC2=O)c1 [Example 72]     Streptococci           MIC        32 µg/mL
14  O=C1O/C(=C\c2ccc(-c3ccccc3F)cc2)C(O)=C1c1ccccc1F [Example 58]     Streptococci           MIC   < 0.125 µg/mL
15  CN(C)c1ccc(/C=C2\OC(=O)C(c3ccc(C(F)(F)F)cc3)=C2O)c2ccccc12 [Example 81]     Streptococci           MIC         1 µg/mL
16  O=C1O/C(=C\c2ccccc2-c2ccc(Cl)cc2)C(O)=C1c1ccc(Cl)cc1 [Example 137]     Streptococci           MIC         2 µg/mL
